Recorded pEC50 values for a group of binders are listed next.
Molecular target: T1, purified human glycophorin A protein (Sigma, cat # G5017) (human, UniProt P02724 20-150)
T1 construct: mature; also called Sigma hGPA; Sigma GPA
T1 sequence (looked up): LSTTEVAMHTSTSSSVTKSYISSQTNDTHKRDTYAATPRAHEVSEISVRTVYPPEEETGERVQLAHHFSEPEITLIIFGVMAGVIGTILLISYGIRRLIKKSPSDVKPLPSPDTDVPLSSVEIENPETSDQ
Test: ELISA, hGPA
pEC50: −log10 of the molar value.
Reported Endpoint: pEC50

>>> recorded_result("8F9E9/F11 (antibody, V domains shown, as m8) VH: QVQLQQSGAELARPGASVKMSCKASGYTFTSYSIHWIKQRPGQSLEWIGYINPNSDYANYNQKFKDKATLTTDKSSTTAYMQLSSLTTDDSAVYYCQTGTRDYWGQGTTLTVSS VL: HIVLTQSPAIMSASPGEKVTIICSARSSVSYMYWFQQKPGTSPKLWIYATSSLPSGVPARFSGSGSGTSYSLTISRMEAEDAATYYCHQRSSYPYTFGSGTKLEIK")
9.80
>>> recorded_result("13G7G1/C3 (antibody, V domains shown, as m8; also called TPP-3423) VH: RVQLQQSGAELARPGASVKMSCKASGYTFTNYAMHWVKQRPGQGLEWIGYINPKSDNTNYNQKFKDKATLTTDKSSATAYMQLSSLTSDDSAVYYCQTGTRDYWGQGTTLTVSS VL: HIVLTQSPAIMSASPGEKVTIFCSASSSITYVYWFQQKPGTSPKLWIYSTSSLPSGVPARFSGSGSGTSYSLTISRMEAEDAATYYCHQRNSYPFTFGSGTKLEIK")
9.40
>>> recorded_result("1E4A2/F8 (antibody, V domains shown, as m8) VH: QVQLQQSGAELARPGASVKMSCKASGYTFTRYSMHWVKQRPGQGLEWIGYINPGTYYTNYNQKFKDRATLTADKSSSTAYMQLNSLTSEDSAVYYCQTGTRDYWGQGTTLTVSS VL: QIVLTQSPPIMSASPGEKVTITCSAASSVSYIYWFQQKPGTSPKLWIYSTSSLPSGVPTRFSGSGSGTSYSLTISRMEAEDAATYYCHQRSSYPFTFGSGTKLEIR")
9.66
>>> recorded_result("10F1B10/F3 (antibody, V domains shown, as m8) VH: QVQLLQSGAELARPGASVRISCKASGYTFTRYAMHWVKQRPGQGLEWIGYINPGTFSTNYNQKFKDRATLTADKSSSTAYMQLNSLTSEDSAVYYCQTGTRDYWGQGTTLTVSS VL: QIVLTQSPPIMSASPGEKVTITCSAASSVSYIYWFQQKPGTSPKLWIYSTSSLPSGVPTRFSGSGSGTSYSLTISRMEAEDAATYYCHQRSSYPFTFGSGTKLEIR")
9.72

Sourced from patent US20190359687A1
